# SYSTEM_TESTED: Sphingolipid delta(4)-desaturase DES1 (Homo sapiens, UniProt O15121)
# Sequence (O15121 whole entry): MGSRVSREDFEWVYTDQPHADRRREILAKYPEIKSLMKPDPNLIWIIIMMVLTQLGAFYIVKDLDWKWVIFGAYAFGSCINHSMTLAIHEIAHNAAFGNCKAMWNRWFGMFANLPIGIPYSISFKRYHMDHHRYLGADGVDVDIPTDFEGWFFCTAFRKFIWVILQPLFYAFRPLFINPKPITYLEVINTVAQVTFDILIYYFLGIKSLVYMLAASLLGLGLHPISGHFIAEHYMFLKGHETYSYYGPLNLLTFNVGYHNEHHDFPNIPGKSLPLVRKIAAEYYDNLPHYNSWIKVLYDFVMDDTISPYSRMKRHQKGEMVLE
# ASSAY_REMARKS: Inhibition of Des1 in human HCT116 cells assessed as formation of CerC6NBD from dhCerC6NBD after 4 hrs by HPLC-FD analysis
MEASUREMENT_NAME: IC50 (µM)
Reply with just the number (in µM).

Task: I'd like to know its IC50. The compound in question is "CCCCCCCCCCCCCS/C=C/[C@H](CO)NC(=O)CCCCCCC"
Output: 18.8

Provenance of the data: ChEMBL document CHEMBL2021903
